# target: Vitamin K-dependent protein C (Homo sapiens)
# Sequence (P04070 43-197 limits assumed): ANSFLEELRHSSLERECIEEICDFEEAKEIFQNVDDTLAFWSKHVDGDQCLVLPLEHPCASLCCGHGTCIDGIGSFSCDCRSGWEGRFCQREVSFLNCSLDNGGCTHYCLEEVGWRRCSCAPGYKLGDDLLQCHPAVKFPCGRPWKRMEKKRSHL
# Sequence (P04070 212-461 limits assumed): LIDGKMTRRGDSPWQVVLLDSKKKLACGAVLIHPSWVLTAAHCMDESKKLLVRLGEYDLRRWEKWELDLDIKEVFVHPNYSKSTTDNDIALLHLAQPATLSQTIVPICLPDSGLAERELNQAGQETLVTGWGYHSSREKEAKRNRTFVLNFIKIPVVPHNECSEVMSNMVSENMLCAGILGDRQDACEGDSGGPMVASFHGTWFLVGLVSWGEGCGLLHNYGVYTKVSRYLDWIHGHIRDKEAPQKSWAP
# test: Compound was evaluated for the inhibitory activity against Activated protein C
measuredAttribute: Ki

[[record]]
structureassmiles = "COC(=O)[C@H](Cc1cccc(C(=N)N)c1)[C@@H](C)NC(=O)c1ccc(-c2cccc(C(N)=O)c2)cc1"
measuredattribute = "Ki"
measuredresult = "> 18.5 µM"

[[record]]
structureassmiles = "N=C(N)c1ccc(O)c(CCCNC(=O)c2ccc(-c3cccc(C(N)=O)c3)cc2)c1"
measuredattribute = "Ki"
measuredresult = "15 µM"


Here's the next entry for you.
# input Look at this molecule and give its reported Ki. N=C(N)c1ccc(O)c(/C=C/CNC(=O)c2ccc(-c3ccnc(C(N)=O)c3)cc2)c1
# output ~18.5 µM
